meta.source: ChEMBL document CHEMBL1152877

Experiment: Cytotoxicity against C57BL/6J mouse Melan-a cells assessed as cell survival at 10 uM by modified crystal violet assay
parameter.measured: viability at 10 µM (%)
# output: bare number, implied unit %

Query block: Indicate the recorded viability at 10 µM value for this compound: Oc1ccc(O)cc1 [HYDROQUINONE]
Result block: 87.3

* * *

Target: Tyrosinase (Agaricus bisporus, UniProt O42713)
Sequence (O42713 whole entry): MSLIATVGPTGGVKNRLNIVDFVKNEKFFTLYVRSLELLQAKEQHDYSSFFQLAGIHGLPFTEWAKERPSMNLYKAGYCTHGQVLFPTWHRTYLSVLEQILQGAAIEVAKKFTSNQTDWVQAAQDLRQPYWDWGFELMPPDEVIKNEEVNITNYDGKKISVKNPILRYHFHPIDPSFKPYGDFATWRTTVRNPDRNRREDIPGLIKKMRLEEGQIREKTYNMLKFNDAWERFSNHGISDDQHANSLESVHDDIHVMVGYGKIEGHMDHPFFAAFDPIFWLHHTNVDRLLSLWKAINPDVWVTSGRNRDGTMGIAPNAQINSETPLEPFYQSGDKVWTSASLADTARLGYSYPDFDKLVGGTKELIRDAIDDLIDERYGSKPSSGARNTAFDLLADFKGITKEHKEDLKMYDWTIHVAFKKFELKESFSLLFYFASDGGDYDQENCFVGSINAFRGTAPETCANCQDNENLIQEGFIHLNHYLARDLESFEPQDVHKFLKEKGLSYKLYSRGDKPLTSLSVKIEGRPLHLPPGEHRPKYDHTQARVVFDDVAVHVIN
pIC50: −log10 of the molar value.
parameter.measured: pIC50

O=C(NC12CC3CC(CC(C3)C1)C2)c1cc(O)cc(O)c1 = < 3.70
Oc1ccc(C23CC4CC(CC(C4)C2)C3)c(O)c1 = 6.05
O=C(NC12CC3CC(CC(C3)C1)C2)c1cc(O)ccc1O = < 3.70
O=C(NC12CC3CC(CC(C3)C1)C2)c1ccc(O)cc1O = < 3.70
Oc1ccc(O)cc1 [HYDROQUINONE] = 5.01

Query block: Assign pIC50 to the following record: "O=C(NC12CC3CC(CC(C3)C1)C2)c1ccc(O)c(O)c1"
Result block: < 3.70

Query block: For the compound "O=C(NC12CC3CC(CC(C3)C1)C2)c1cccc(O)c1O" , give its measured pIC50 value.
Result block: < 3.70

Query block: Given the compound CCCCc1ccc(O)cc1O [RUCINOL] , write its reported pIC50.
Result block: 6.82
